Numbers sourced from the supplement of paper PMC6897291.

Test system: RIVA
Experiment: growth inhibition by drug alone (1 - RLU/untreated control) (fraction); higher = stronger inhibition
Conditions: 10 nM; time (day): 6; 177Lu-lilotomab satetraxetan 0 ug/ml
experimental_endpoint: growth inhibition by drug alone
Could you keep your reply to the number by itself?

>  <molecule>
Cc1cc(Nc2cc(N3CCN(C)CC3)nc(Sc3ccc(NC(=O)C4CC4)cc3)n2)n[nH]1 [VX-680 (MK-0457, Tozasertib)]

>  <growth inhibition by drug alone>
-0.195

$$$$

Looking up `N#Cc1ccc(NC(=O)Nc2ccccc2Br)c2n[nH]nc12` , I see its growth inhibition by drug alone listed as -0.43

Recorded result, `CC(C)(C)c1ccc(S(=O)(=O)/C=C/C#N)cc1` , growth inhibition by drug alone: -0.202

For reference, reported growth inhibition by drug alone for `O=C(O)CC[C@H]1CC[C@@](c2cc(F)ccc2F)(S(=O)(=O)c2ccc(Cl)cc2)CC1` stands at -0.42

growth inhibition by drug alone in this record for Cn1cncc1[C@@](N)(c1ccc(Cl)cc1)c1ccc2c(c1)c(-c1cccc(Cl)c1)cc(=O)n2C [Tipifarnib (Zarnestra)] : -0.678

The molecule identified as CCN(CC)CCCC(C)Nc1nc(C)cc(Nc2ccc3nc(C)cc(N)c3c2)n1 (stereo not drawn) registered its growth inhibition by drug alone at -0.279

Summary for this molecule, C[C@]12CC[C@H](O)CC1=CC[C@@H]1[C@@H]2CC[C@]2(C)C(c3cccnc3)=CC[C@@H]12 [Abiraterone (CB-7598)] : growth inhibition by drug alone is -0.618

Reported growth inhibition by drug alone for `COc1cc(Nc2ncc(F)c(Nc3ccc4c(n3)N(COP(=O)(O)O)C(=O)C(C)(C)O4)n2)cc(OC)c1OC` was -0.286

* * *

Tested on: U-2932
Assay: growth inhibition by drug plus 177Lu-lilotomab satetraxetan (1 - RLU/untreated control) (fraction); higher = stronger inhibition
Settings: 1000 nM; time (day): 6; 177Lu-lilotomab satetraxetan 1 ug/ml
Record criterion met whenever growth inhibition by drug plus 177Lu-lilotomab satetraxetan is at 0.3 or higher; record criterion not met when lower.

Look over these answered cases.
>  <molecule>
CC(C)(C)c1[nH]cnc1/C=c1\[nH]c(=O)/c(=C/c2ccccc2)[nH]c1=O

>  <cat>
criterion met

$$$$
>  <molecule>
O=C(NC1CCNCC1)c1n[nH]cc1NC(=O)c1c(Cl)cccc1Cl

>  <cat>
criterion met

$$$$
>  <molecule>
Cc1ccc(-c2cc(C(F)(F)F)nn2-c2ccc(S(N)(=O)=O)cc2)cc1

>  <cat>
criterion not met

$$$$

Is the recorded value of growth inhibition by drug plus 177Lu-lilotomab satetraxetan equal to or greater than 0.3 for this molecule? `Cn1cc(C2=C(c3ccc(Cl)cc3Cl)C(=O)NC2=O)c2ccccc21`
criterion not met

Confirm if growth inhibition by drug plus 177Lu-lilotomab satetraxetan reported for the molecule `Nc1[nH]nc2nnc(-c3c(-c4ccccc4)nn4ccccc34)cc12` is 0.3 or above.
criterion not met

Threshold query (growth inhibition by drug plus 177Lu-lilotomab satetraxetan >= 0.3) on `OC[C@H]1O[C@@H](n2cnc3c2N=CNC[C@H]3O)C[C@@H]1O`
criterion not met

Test whether the molecule `CCCCCOC(=O)Nc1nc(=O)n([C@@H]2O[C@H](C)[C@@H](O)[C@H]2O)cc1F` records growth inhibition by drug plus 177Lu-lilotomab satetraxetan of 0.3 or higher.
criterion not met

Quick check: does CC(C)C(=O)Nc1ccc([N+](=O)[O-])c(C(F)(F)F)c1 [Flutamide (Eulexin)] have growth inhibition by drug plus 177Lu-lilotomab satetraxetan greater than or equal to 0.3?
criterion met

Exam item: decide whether the reported growth inhibition by drug plus 177Lu-lilotomab satetraxetan for `Cc1csc(-c2nnc(Nc3ccc(Oc4ncccc4-c4ccnc(N)n4)cc3)c3ccccc23)c1` is at least 0.3.
criterion met

* * *

System: RIVA
Assay: growth inhibition by drug plus 177Lu-lilotomab satetraxetan (1 - RLU/untreated control) (fraction); higher = stronger inhibition
Conditions: 10 nM; time (day): 5; 177Lu-lilotomab satetraxetan 0.5 ug/ml
Structures can show the parent of a compound that is named as a salt.
experimental_endpoint: growth inhibition by drug plus 177Lu-lilotomab satetraxetan
Just the number, please.

>  <compound>
CCN(CC)CCCCNc1ncc2cc(-c3cc(OC)cc(OC)c3)c(NC(=O)NC(C)(C)C)nc2n1

>  <endpoint_value>
0.587

$$$$
>  <compound>
CCN(CC)CCOc1ccc(Nc2ncc3cc(-c4c(Cl)cccc4Cl)c(=O)n(C)c3n2)cc1

>  <endpoint_value>
0.536

$$$$
>  <compound>
CC(C)(C#N)c1cc(Cn2cncn2)cc(C(C)(C)C#N)c1

>  <endpoint_value>
0.593

$$$$
>  <compound>
CCN[C@H]1C[C@H](C)S(=O)(=O)c2sc(S(N)(=O)=O)cc21 [Dorzolamide HCL]

>  <endpoint_value>
0.471

$$$$
>  <compound>
Cc1ccc(C(=O)N(CCCN)[C@@H](c2nc3cc(Cl)ccc3c(=O)n2Cc2ccccc2)C(C)C)cc1

>  <endpoint_value>
0.659

$$$$
>  <compound>
CN1CCN(c2ccc3nc(-c4c(N)c5c(F)cccc5[nH]c4=O)[nH]c3c2)CC1

>  <endpoint_value>
0.522

$$$$

// growth inhibition by drug plus 177Lu-lilotomab satetraxetan (RIVA) for `O=c1cc(N2CCOCC2)oc2c(-c3ccccc3)cccc12` = 0.563

Bench note, RIVA: entry `Cc1[nH]c(/C=C2\C(=O)Nc3ccc(S(=O)(=O)N(C)c4cccc(Cl)c4)cc32)c(C)c1C(=O)N1CCN(C)CC1` , its growth inhibition by drug plus 177Lu-lilotomab satetraxetan = 0.543

* * *

Test system: RIVA
Experiment: growth inhibition by drug alone (1 - RLU/untreated control) (fraction); higher = stronger inhibition
Details: 100 nM; time (day): 6; 177Lu-lilotomab satetraxetan 0 ug/ml
Label rule, in plain words: growth inhibition by drug alone of -0.2 and up is yes (1), under -0.2 is no (0).

Evaluate CCOC(=O)C1=C[C@]2(CC)CCCN3CCc4c(n1c1ccccc41)[C@@H]32 [Vinpocetine (Cavinton)] : growth inhibition by drug alone at minimum -0.2?
yes (1)

* * *

# growth inhibition by drug alone annotations
Tested on: RIVA
Test: growth inhibition by drug alone (1 - RLU/untreated control) (fraction); higher = stronger inhibition
Conditions: 10 nM; time (day): 5; 177Lu-lilotomab satetraxetan 0 ug/ml
// print number alone

Given item `Cc1cccc(-c2[nH]c(C(C)(C)C)nc2-c2ccc3nccnc3c2)n1` , the value recorded as its growth inhibition by drug alone is -0.0953

Form: molecule = `Cc1cc(Nc2cc(N3CCN(C)CC3)nc(/C=C/c3ccccc3)n2)n[nH]1` ; growth inhibition by drug alone = -0.318

# growth inhibition by drug alone of `O=C(O)c1ccc2cc(-c3ccc(O)c(C45CC6CC(CC(C6)C4)C5)c3)ccc2c1` = -0.0188

The molecule listed as COc1cc(Nc2ncc(F)c(Nc3ccc4c(n3)NC(=O)C(C)(C)O4)n2)cc(OC)c1OC [R406(free base)] shows growth inhibition by drug alone equal to -0.017

So for `O=c1oc2c(O)c(O)cc3c(=O)oc4c(O)c(O)cc1c4c23` , the logged growth inhibition by drug alone turned out to be -0.166

The molecule listed as `COc1ccc(CCN(C)CCCOc2ccc(S(=O)(=O)c3c(C(C)C)n(C)c4ccccc34)cc2)cc1OC` has a reported growth inhibition by drug alone of -0.0789

For reference, reported growth inhibition by drug alone for `O=C(O)CC[C@H]1CC[C@@](c2cc(F)ccc2F)(S(=O)(=O)c2ccc(Cl)cc2)CC1` stands at -0.0366

Just so you know, measured growth inhibition by drug alone for `COc1cc2ncnc(-n3nc(-c4ccccn4)nc3N)c2cc1OC` came out at -0.00529

# growth inhibition by drug alone (molecule: `Cc1csc(-c2nnc(Nc3ccc(Oc4ncccc4-c4ccnc(N)n4)cc3)c3ccccc23)c1` ) is 0.0704

Value of growth inhibition by drug alone reported for the molecule CO[C@H]1C[C@@H]2CC[C@@H](C)[C@@](O)(O2)C(=O)C(=O)N2CCCC[C@H]2C(=O)O[C@H]([C@H](C)C[C@@H]2CC[C@@H](OCCO)[C@H](OC)C2)CC(=O)[C@H](C)/C=C(\C)[C@@H](O)[C@@H](OC)C(=O)[C@H](C)C[C@H](C)/C=C/C=C/C=C/1C [Everolimus (RAD001)] is 0.744

Entry `Cc1ccc(-c2cc(C(F)(F)F)nn2-c2ccc(S(N)(=O)=O)cc2)cc1` — recorded growth inhibition by drug alone = -0.153

growth inhibition by drug alone recorded for this molecule, `NC(=O)c1ccc(I)c([N+](=O)[O-])c1` , is -0.288

growth inhibition by drug alone reported for this molecule `C[C@@H]1C[C@H]2[C@@H]3CCC4=CC(=O)C=C[C@]4(C)[C@@]3(F)[C@@H](O)C[C@]2(C)[C@@]1(O)C(=O)CO` : -0.018

The reported growth inhibition by drug alone of the molecule `CC[C@@H]1C(=O)N(C)c2cnc(Nc3ccc(C(=O)N[C@H]4CC[C@H](N5CCN(CC6CC6)CC5)CC4)cc3OC)nc2N1C(C)C` was 0.153

Reported growth inhibition by drug alone for `c1ccc2c(-c3cnn4cc(-c5ccc(N6CCNCC6)cc5)cnc34)ccnc2c1` was -0.265

Lab note: `Cc1cnc(NC(=O)Nc2cc(Br)c(C)cc2OC[C@@H]2CNCCO2)cn1` gave growth inhibition by drug alone of -0.0759

Documented growth inhibition by drug alone of `Oc1cccc(-c2nc(N3CCOCC3)c3oc4ncccc4c3n2)c1` : 0.0557

Record `O=C1c2ccccc2-c2nc3nonc3nc21` . Reported growth inhibition by drug alone: -0.283

Record `Cc1ccnc(NS(=O)(=O)c2ccc(NC(=O)Nc3ccc(S(=O)(=O)Nc4nccc(C)n4)cc3)cc2)n1` , field growth inhibition by drug alone: -0.0366

Note to self: growth inhibition by drug alone recorded for O=C1[C@H](CC[C@H](O)c2ccc(F)cc2)[C@@H](c2ccc(O)cc2)N1c1ccc(F)cc1 [Ezetimibe (Zetia)] was -0.0268

According to the records, this molecule `CC[C@H](Nc1ncnc2[nH]cnc12)c1nc2cccc(F)c2c(=O)n1-c1ccccc1` displays growth inhibition by drug alone of -0.182

growth inhibition by drug alone in this record for Cn1nnc2c(C(N)=O)ncn2c1=O [Temozolomide] : -0.0714

Sample `CNC(=O)c1cc(COc2nnc(Nc3ccc(Cl)cc3)c3ccoc23)ccn1` ; growth inhibition by drug alone observed: -0.128

Sure, the documented growth inhibition by drug alone for `C[C@@H](Oc1cc(-n2cnc3ccc(CN4CCN(C)CC4)cc32)sc1C(N)=O)c1ccccc1C(F)(F)F` is 0.248
